Biological target: T1, recombinant hMCAM-His (human, UniProt P43121 24-559)
T1 construct: not shown: His tag
T1 chain: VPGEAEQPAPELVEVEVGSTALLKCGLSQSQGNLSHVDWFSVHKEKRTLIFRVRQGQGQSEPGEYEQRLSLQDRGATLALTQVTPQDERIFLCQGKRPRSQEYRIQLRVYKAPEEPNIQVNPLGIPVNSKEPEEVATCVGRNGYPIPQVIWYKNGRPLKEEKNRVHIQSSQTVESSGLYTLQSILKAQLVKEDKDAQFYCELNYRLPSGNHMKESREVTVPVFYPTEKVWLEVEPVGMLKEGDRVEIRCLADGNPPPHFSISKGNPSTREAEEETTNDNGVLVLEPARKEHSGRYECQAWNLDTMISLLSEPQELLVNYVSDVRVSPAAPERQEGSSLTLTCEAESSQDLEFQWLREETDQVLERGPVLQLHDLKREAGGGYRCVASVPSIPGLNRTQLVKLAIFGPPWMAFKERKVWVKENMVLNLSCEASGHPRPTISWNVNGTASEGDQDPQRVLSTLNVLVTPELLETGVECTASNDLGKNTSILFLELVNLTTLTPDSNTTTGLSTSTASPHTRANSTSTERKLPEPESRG
Experiment: competitive ELISA on hMCAM-His, competitor biotinylated rodent or chimeric 2107; Expt. #1; vs rodent 2107
experimental endpoint: fold over rodent (competitive ELISA) (fold)
Report as a plain number; the unit fold is understood.

# binder, units text, fold over rodent (competitive ELISA)
rows = [
    ("chimeric 2107 (antibody, V domains shown) VH: QVQLKESGPGLVQSSQTLSLTCTVSGFSLTSNGVSWVRQPPGKGLEWIAAISSGGSTYYNSAFKSRLSISRNTSKSQVLLKMNSLQTEDTGMYFCARHRPFYFDYWGQGVMVTVSS VL: DIQVTQSPSLLSASVGDRVTLNCKGSQNIYKSLAWFRLKRGEAPKLLIYDANSLQTGIPSRFSGSGSGTDFTLTITSLQPEDVATYFCQQYYSGYTFGAGTKLELK", "fold", 0.68),
]

Using the record for h2107_VH1 + h2107_VL2 (antibody, human IgG1, V domains shown, also called VH1VL2) VH: QVTLKESGPVLVKPTETLTLTCTVSGFSLTSNGVSWVRQPPGKALEWIAAISSGGSTYYNSAFKSRLTISRDTSKSQVVLTMTNMDPVDTATYYCARHRPFYFDYWGQGTLVTVSS VL: DIQMTQSPSSLSASVGDRVTITCKGSQNIYKSLAWFQLKPGKVPKLLIYDANSLQTGIPSRFSGSGSGTDFTLTISSLQPEDVATYYCQQYYSGYTFGGGTKVEIK , state its measured fold over rodent (competitive ELISA).
1.29

Using the record for h2107_VH4 + h2107_VL2 (antibody, human IgG1, V domains shown) VH: QVTLKESGPVLVKPTETLTLTCTVSGFSLTSSGVSWVRQPPGKALEWIAAISSGGSTYYNSAFKSRLTISPDTSKSQVVLTMTNMDPVDTATYYCARHRPFYFDYWGQGTLVTVSS VL: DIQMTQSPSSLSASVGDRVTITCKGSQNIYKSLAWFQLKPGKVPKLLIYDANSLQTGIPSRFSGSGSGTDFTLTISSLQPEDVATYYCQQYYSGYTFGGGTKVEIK , state its measured fold over rodent (competitive ELISA).
11.7

Recorded values, source patent US20150239980A1.
